- Species on record: Rattus norvegicus
- TEST: Open TG-GATES - Regimen: Single
- Type: toxicity, organism-based, Sprague-Dawley
- Design: regimen Single, gender Male, age 6 weeks
- RUN_CONDITIONS: in vivo, po, 0 mg/kg, 3 h, tissue Plasma, route gavage, dose level Control
VALUE_TYPE: DBIL
A complete answer gives the number followed by the unit.

I would be grateful if you could share the reported DBIL for CN(C)C(=N)N=C(N)N [METFORMIN] .
0.016 mg/dL

Record: ClC(Cl)(Cl)Cl [CARBON TETRACHLORIDE]
0.3 mg/dL

Record: CCc1oc2ccccc2c1C(=O)c1cc(Br)c(O)c(Br)c1 [BENZBROMARONE]
0.046 mg/dL

Record: CC1=C(CC(=O)O)c2cc(F)ccc2/C1=C\c1ccc([S+](C)[O-])cc1 (stereo unspecified)
0.01 mg/dL

Record: CCC1(c2ccccc2)C(=O)NC(=O)NC1=O [PHENOBARBITAL]
0.068 mg/dL

Record: CN(C)CCC=C1c2ccccc2COc2ccccc21 [DOXEPIN]
0.006 mg/dL

###

Exercise: state measured TBIL for each of the compounds provided.
- Species on record: Rattus norvegicus
- TEST: Open TG-GATES - Regimen: Daily Repeat
- Type: toxicity, organism-based, Sprague-Dawley
- Design: regimen Daily Repeat, gender Male, age 6 weeks
- RUN_CONDITIONS: in vivo, po, 0 mg/kg, 72 h, tissue Plasma, route gavage, dose level Control, time 3 day
Number only, in mg/dL; omit the unit.

I would be grateful if you could share the reported TBIL for CCc1oc2ccccc2c1C(=O)c1cc(Br)c(O)c(Br)c1 [BENZBROMARONE] .
0.3

Record: CN(C)CCC=C1c2ccccc2COc2ccccc21 [DOXEPIN]
0.036

Record: CCCCc1oc2ccccc2c1C(=O)c1cc(I)c(OCCN(CC)CC)c(I)c1 [AMIODARONE]
0.1

Record: CC(C)N(CCC(C(N)=O)(c1ccccc1)c1ccccn1)C(C)C (stereo unspecified) [DISOPYRAMIDE]
0

Record: CC1=C(CC(=O)O)c2cc(F)ccc2/C1=C\c1ccc([S+](C)[O-])cc1 (stereo unspecified)
0.02

Record: CCC1(c2ccccc2)C(=O)NC(=O)NC1=O [PHENOBARBITAL]
0.4

Record: CN(C)C(=N)N=C(N)N [METFORMIN]
0.034

Record: OCCOCCN1CCN(C(c2ccccc2)c2ccc(Cl)cc2)CC1 (stereo unspecified) [HYDROXYZINE]
0.052

Record: O=NN(CCCl)C(=O)NC1CCCCC1 [LOMUSTINE]
0.4

Record: CC[C@H]1[C@@H]2C[C@H]3[C@@H]4N(C)c5ccccc5[C@]45C[C@@H]([C@@H]2[C@H]5O)N3[C@@H]1O [AJMALINE]
0.3

Record: ClC(Cl)(Cl)Cl [CARBON TETRACHLORIDE]
0.1

###

- Species on record: Rattus norvegicus
- TEST: Open TG-GATES - Regimen: Daily Repeat
- Type: toxicity, organism-based, Sprague-Dawley
- Design: regimen Daily Repeat, gender Male, age 6 weeks
- RUN_CONDITIONS: in vivo, po, 0 mg/kg, […], tissue Blood, route gavage, dose level Control, time 28 day
Threshold-based label: RBC under 800 x10_4/ul gives criterion met, RBC not under 800 x10_4/ul gives criterion not met.

Answer whether the molecule CC(C)N(CCC(C(N)=O)(c1ccccc1)c1ccccn1)C(C)C (stereo unspecified) [DISOPYRAMIDE] has RBC strictly less than 800 x10_4/ul
criterion met

Record: CCC1(c2ccccc2)C(=O)NC(=O)NC1=O
criterion met

Record: CCc1oc2ccccc2c1C(=O)c1cc(Br)c(O)c(Br)c1
criterion not met

###

- Species: Rattus norvegicus
- TEST: Open TG-GATES - Regimen: Daily Repeat
- Assay type: toxicity, organism-based, Sprague-Dawley
- Parameters: regimen Daily Repeat, gender Male, age 6 weeks
- RUN_CONDITIONS: in vivo, po, 0 mg/kg, […], tissue Plasma, route gavage, dose level Control, time 14 day
Exercise: state measured LDH for each of the molecules provided.
Number only, in IU/L; omit the unit.

I would be grateful if you could share the reported LDH for CCc1oc2ccccc2c1C(=O)c1cc(Br)c(O)c(Br)c1 [BENZBROMARONE] .
85.6

Record: O=NN(CCCl)C(=O)NC1CCCCC1 [LOMUSTINE]
85.6

Record: CCC1(c2ccccc2)C(=O)NC(=O)NC1=O [PHENOBARBITAL]
102.4

Record: CC1=C(CC(=O)O)c2cc(F)ccc2/C1=C\c1ccc([S+](C)[O-])cc1 (stereo unspecified)
65.6

Record: CC[C@H]1[C@@H]2C[C@H]3[C@@H]4N(C)c5ccccc5[C@]45C[C@@H]([C@@H]2[C@H]5O)N3[C@@H]1O [AJMALINE]
90.6

Record: ClC(Cl)(Cl)Cl [CARBON TETRACHLORIDE]
209.6

Record: CN(C)CCC=C1c2ccccc2COc2ccccc21 [DOXEPIN]
65.6

Record: OCCOCCN1CCN(C(c2ccccc2)c2ccc(Cl)cc2)CC1 (stereo unspecified) [HYDROXYZINE]
94.6

Record: CC(C)N(CCC(C(N)=O)(c1ccccc1)c1ccccn1)C(C)C (stereo unspecified) [DISOPYRAMIDE]
142.2

Record: CN(C)C(=N)N=C(N)N [METFORMIN]
168

Record: CCCCc1oc2ccccc2c1C(=O)c1cc(I)c(OCCN(CC)CC)c(I)c1 [AMIODARONE]
206.4

###

- Organism: Rattus norvegicus
- TEST: Open TG-GATES - Regimen: Single
- Type: toxicity, organism-based, Sprague-Dawley
- Parameters: regimen Single, gender Male, age 6 weeks
- RUN_CONDITIONS: in vivo, po, 0 mg/kg, 24 h, tissue Plasma, route gavage, dose level Control
VALUE_TYPE: GLC (mg/dL)
Number only, in mg/dL; omit the unit.

I would be grateful if you could share the reported GLC for CC[C@H]1[C@@H]2C[C@H]3[C@@H]4N(C)c5ccccc5[C@]45C[C@@H]([C@@H]2[C@H]5O)N3[C@@H]1O .
202.2

Record: OCCOCCN1CCN(C(c2ccccc2)c2ccc(Cl)cc2)CC1 (stereo not given) [HYDROXYZINE]
176.8

Record: O=NN1CCOCC1
188

Record: ClC(Cl)(Cl)Cl [CARBON TETRACHLORIDE]
202.2

Record: CN(C)CCC=C1c2ccccc2COc2ccccc21 [DOXEPIN]
173.2

Record: O=NN(CCCl)C(=O)NC1CCCCC1
203.8

Record: CCc1oc2ccccc2c1C(=O)c1cc(Br)c(O)c(Br)c1
188.8

Record: CC1=C(CC(=O)O)c2cc(F)ccc2/C1=C\c1ccc([S+](C)[O-])cc1 (stereo not given)
182.6

Record: CCC1(c2ccccc2)C(=O)NC(=O)NC1=O
188.4

Record: CN(C)C(=N)N=C(N)N
173

###

- Organism: Rattus norvegicus
- TEST: Open TG-GATES - Regimen: Daily Repeat
- Type: toxicity, organism-based, Sprague-Dawley
- Design: regimen Daily Repeat, gender Male, age 6 weeks
- RUN_CONDITIONS: in vivo, po, 0 mg/kg, 72 h, tissue Plasma, route gavage, dose level Control, time 3 day
Binary call on RALB: met from 3 g/dL upward, not met beneath that.

Determine whether measured RALB meets or exceeds 3 g/dL for CCC1(c2ccccc2)C(=O)NC(=O)NC1=O
met

Record: CN(C)C(=N)N=C(N)N
not met

Record: CC[C@H]1[C@@H]2C[C@H]3[C@@H]4N(C)c5ccccc5[C@]45C[C@@H]([C@@H]2[C@H]5O)N3[C@@H]1O
met

Record: ClC(Cl)(Cl)Cl [CARBON TETRACHLORIDE]
met

Record: CCc1oc2ccccc2c1C(=O)c1cc(Br)c(O)c(Br)c1
met

Record: CC(C)N(CCC(C(N)=O)(c1ccccc1)c1ccccn1)C(C)C (stereo unspecified) [DISOPYRAMIDE]
not met

Record: CC1=C(CC(=O)O)c2cc(F)ccc2/C1=C\c1ccc([S+](C)[O-])cc1 (stereo unspecified)
not met

Record: CN(C)CCC=C1c2ccccc2COc2ccccc21 [DOXEPIN]
not met

Record: CCCCc1oc2ccccc2c1C(=O)c1cc(I)c(OCCN(CC)CC)c(I)c1
met

Record: OCCOCCN1CCN(C(c2ccccc2)c2ccc(Cl)cc2)CC1 (stereo unspecified) [HYDROXYZINE]
not met

Record: O=NN(CCCl)C(=O)NC1CCCCC1
met

###

- Species: Rattus norvegicus
- TEST: Open TG-GATES - Regimen: Single
- Format: toxicity, organism-based, Sprague-Dawley
- Parameters: regimen Single, gender Male, age 6 weeks
- RUN_CONDITIONS: in vivo, po, 0 mg/kg, 6 h, tissue Blood, route gavage, dose level Control
VALUE_TYPE: APTT (s)
Number only, in s; omit the unit.

I would be grateful if you could share the reported APTT for CN(C)CCC=C1c2ccccc2COc2ccccc21 [DOXEPIN] .
17.7

Record: CCc1oc2ccccc2c1C(=O)c1cc(Br)c(O)c(Br)c1
16

Record: CCC1(c2ccccc2)C(=O)NC(=O)NC1=O
19

Record: CC(C)N(CCC(C(N)=O)(c1ccccc1)c1ccccn1)C(C)C (stereo not given) [DISOPYRAMIDE]
22.4

Record: CN(C)C(=N)N=C(N)N
16.1

Record: O=NN(CCCl)C(=O)NC1CCCCC1
17.4

Record: ClC(Cl)(Cl)Cl [CARBON TETRACHLORIDE]
17

Record: OCCOCCN1CCN(C(c2ccccc2)c2ccc(Cl)cc2)CC1 (stereo not given) [HYDROXYZINE]
16.3

Record: CC1=C(CC(=O)O)c2cc(F)ccc2/C1=C\c1ccc([S+](C)[O-])cc1 (stereo not given)
17.8

Record: CC[C@H]1[C@@H]2C[C@H]3[C@@H]4N(C)c5ccccc5[C@]45C[C@@H]([C@@H]2[C@H]5O)N3[C@@H]1O
16.9
